Entry source: patent US20050282739A1

- test system: T1, human melanocortin-4 receptor (hMC4-R) (human, UniProt P32245 1-332)
- T1 construct: whole, on cells; membranes prepared from hMC4-R cells were used; also called Melanocortin Receptor 4
- T1 sequence (P32245 whole entry): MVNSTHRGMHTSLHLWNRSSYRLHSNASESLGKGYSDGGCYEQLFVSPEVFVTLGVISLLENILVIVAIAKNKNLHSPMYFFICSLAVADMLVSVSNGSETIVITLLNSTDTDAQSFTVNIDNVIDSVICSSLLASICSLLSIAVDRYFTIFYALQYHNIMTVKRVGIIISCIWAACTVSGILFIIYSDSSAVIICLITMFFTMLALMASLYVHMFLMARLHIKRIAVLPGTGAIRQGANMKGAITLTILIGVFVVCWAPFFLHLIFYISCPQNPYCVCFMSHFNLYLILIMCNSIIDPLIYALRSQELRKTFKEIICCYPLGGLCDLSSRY
- protocol: 125I-NDP-α-MSH competition, hMC4-R membranes
- Experimental: The competitive inhibition binding assay was conducted using membranes prepared from hMC3-R, hMC4-R, hMC5-R, and B-16 mouse melanoma cells (containing MC1-R) using 0.4 nM ¹²⁵I-NDP-alpha-MSH (New England Nuclear, Boston, Mass., USA) in 50 mM HEPES buffer containing 1 mM MgCl₂, 2 mM CaCl₂, and 5 mM KCl, at pH 7.2. […] The filter was dried and counted in a gamma counter for remaining radioactivity bound to the membranes. […]
Square brackets hold non-standard residues; d marks the D form. Ends that are not written are not given here. Nle = CCCC[C@H](N)C(=O)O
reported metric: % Inhibition at 1 µM

binder="YV[Nle]GCH[dF]RWDRF-NH2 (also: oxorhenium(V) N3S1 chelate: C5 SG + backbone N of X3, G4, C5, bridge at 5 via Re(V)=O, other end not in the chain) [metallopeptide 3-9]" reported=55%
binder="YVC[Nle]GH[dF]RWDRF-NH2 (bridge (positions not given here); not fully specified (bridges); printed as Tyr-Val-Cys-Nle-Gly-His-D-Phe-Arg-Trp-Asp-Arg-Phe-NH2.; also: oxorhenium(V) N3S1 complex) [metallopeptide 3-11]" reported=82%
binder="YV[Nle]GH[dF]RWCDRF-NH2 (not fully specified (bridges); printed as Tyr-Val-Nle-Gly-His-D-Phe-Arg-Trp-Cys-Asp-Arg-Phe-NH2; also: oxorhenium(V) N3S1 chelate (backbone N of R7, W8, C9 and C9 S)) [metallopeptide 3-4]" reported=94%
